# reported % inhibition; entries follow
- system.tested: His6-AspH315–758 (human aspartate/asparagine-β-hydroxylase, AspH) (Homo sapiens, UniProt Q12797)
- Construct: N-Terminally His6-tagged human AspH315–758 (His6-AspH315–758) was produced in E. coli BL21 (DE3) cells; made in house; host or cells: E. coli BL21 (DE3), pET-28a(+) vector
- Sequence (Q12797 315-758): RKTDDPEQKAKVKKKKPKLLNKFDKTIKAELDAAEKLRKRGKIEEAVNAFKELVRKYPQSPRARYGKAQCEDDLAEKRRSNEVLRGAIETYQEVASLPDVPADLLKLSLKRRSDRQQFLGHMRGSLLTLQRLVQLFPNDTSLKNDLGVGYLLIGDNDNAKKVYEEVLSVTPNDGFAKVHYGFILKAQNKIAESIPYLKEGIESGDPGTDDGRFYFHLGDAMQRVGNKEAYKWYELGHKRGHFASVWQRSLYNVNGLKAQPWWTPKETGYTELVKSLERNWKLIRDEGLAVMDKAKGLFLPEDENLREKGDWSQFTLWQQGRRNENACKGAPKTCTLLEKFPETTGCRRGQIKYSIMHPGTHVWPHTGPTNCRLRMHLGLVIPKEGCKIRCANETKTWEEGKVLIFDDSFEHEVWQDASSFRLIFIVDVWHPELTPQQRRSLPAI
- protocol.details: SPE-MS AspH inhibition assay (LOPAC screen at fixed 20 μM and IC50 dose-response), hydroxylation of cyclic peptide hFX-CP101–119
- Assay type: biochemical
- test.settings: LOPAC Plate 4, compound at 20 uM
Give the value in % but do not write % after it.

Given the compound Cl.O=C(CCCCCN1CCN(c2ccccc2-c2ccccc2)CC1)NC1CCCc2ccccc21 (stereo not drawn) [LP 12 hydrochloride hydrate] , what is its reported % inhibition?
-43.43

Please do the same for N#CC(=C(/N)Sc1ccccc1N)/C(C#N)=C(/N)Sc1ccccc1N [U0126] as well.
-0.28

Continuing:
Given the compound N=C(N)NC(=N)Nc1ccccc1 [1-Phenylbiguanide] , what is its reported % inhibition?
12.13

Please do the same for Cl.NC[C@@H]1O[C@H](c2ccccc2)Cc2c1ccc(O)c2O [A-68930 hydrochloride] as well.
78.36

Please do the same for NC/C=C/C(=O)O [(E)-4-amino-2-butenoic acid] as well.
0.14
